Listed here: items and their measured ΔTm.
# System: Fibroblast growth factor receptor 3 (Homo sapiens)
# Cond: Compound concentration 20.0 uM, Protein concentration 2.0 uM, Result type QC Liability
# Description: Thermal Shift Assay. Domain: start/stop: P449-E759
Form entry: value (°C) — number only.

CC1(C)Oc2ncnc(N)c2N=C1c1ccc([C@H]2CC[C@H](CC(=O)O)CC2)cc1    0.43
CCN1CCN(Cc2ccc(Nc3ncc(F)c(-c4cc(F)c5nc(C)n(C(C)C)c5c4)n3)nc2)CC1    3.23
O=C(NCCN1CCC2(CC1)C(=O)NCN2c1cccc(F)c1)c1ccc2ccccc2c1    0.36
CCCCC/C=C/C=C1/C(=O)C=C[C@@H]1C/C=C\CCCC(=O)O    0.72
Cc1n[nH]c2ncc(C(=O)N3CCC[C@H]3c3ccc(Cl)cc3)cc12    0.54

Q. Identify the reported ΔTm for the following entry. "CC(=O)Nc1cccc(-n2c(=O)n(C3CC3)c(=O)c3c(Nc4ccc(I)cc4F)n(C)c(=O)c(C)c32)c1"
A. 0.38

Q. For the compound "CN1C(=O)[C@@H](NC(=O)c2cc(Cc3ccccc3)on2)COc2ccccc21" , give its measured ΔTm value.
A. -2.65

Q. Return reported ΔTm. Input compound: "CN1CC(=O)N(C)c2cnc(Nc3ccc(NC(=O)Nc4cccc(C(=O)O)c4)cc3)nc21"
A. 1.19

Q. For the compound "CNC(=O)COc1cc2cc(Nc3nc(N4CCC(C(=O)N(C)C)CC4)ncc3Cl)cc(OC)c2n(C)c1=O" , give its reported ΔTm.
A. 0.39

Q. # return recorded ΔTm for input "CC(C)N(CCCCOCC(=O)O)c1cnc(-c2ccccc2)c(-c2ccccc2)n1"
A. -0.51

Q. Please give the documented ΔTm of "CCCc1c(OCCCOc2ccc(OCC(=O)O)cc2)ccc(C(C)=O)c1O"
A. 0.12

Q. Tell me its ΔTm given "CCCN1C(=O)c2ccc(Cl)cc2Nc2ncccc21" as the entry.
A. 1.35

Q. Input "Cc1cc(Cl)ccc1S(=O)(=O)NC[C@H]1C2CCC(CC2)[C@@H]1/C=C\CCCC(=O)O" , output reported ΔTm.
A. 0.12

Q. For the compound "CN1CCC(C#N)(NC(=O)[C@@H](NC(=O)N2CCOCC2)C(C)(C)C)CC1" , give its reported ΔTm.
A. 0.67

Q. Please indicate ΔTm recorded for "N=C(N)NCCC[C@@H](NC(=O)C(c1ccccc1)c1ccccc1)C(=O)NCc1ccc(CNC(N)=O)cc1"
A. 0.46

Q. Given "COc1ccccc1[C@@H]1CNCCC12CCN(C(=O)[C@](OC)(c1ccccc1)C(F)(F)F)CC2" , respond with its ΔTm.
A. 0.45

Q. Report ΔTm for "CCS(=O)(=O)Nc1cccc(Oc2cncc(Nc3ccc(I)cc3F)c2C(N)=O)c1"
A. 1.17

Q. Supply measured ΔTm of "CCn1c(-c2nonc2N)nc2ccccc21" in your reply.
A. 0.81

Q. Given the compound "Cc1cc2ncnn2cc1Nc1ncc2c(n1)n(C1CCOCC1)c(=O)n2C" , write its reported ΔTm.
A. 0.53

Q. For the compound "CC(=O)N1CCC(c2ccc(C(=O)NC3=NCCN3)cc2C(F)(F)F)CC1" , report ΔTm.
A. 0.6

Q. Supply measured ΔTm of "NC(=O)c1ccccc1Nc1nc(-c2ccc(N3CCOCC3)cc2)cc2ncccc12" in your reply.
A. 4.32
